Overview of reported composite z-score across a group of compounds:
protocol-notes: small-molecule binders of probe aLefty1, primary screen, biochemical, small-molecule microarray, 635/667 nm fluorescence (AID 1153);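 note: score merges spot fluorescence with signal-to-noise ratio from the scanned slide images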
reported-conditions: higher = more signal
Write the number on its own, no unit after it.

Worked examples, 5 compounds total:
Query string: Sample CC(C)C[C@H]1NC(=O)[C@@]23C(=O)N[C@@H](Cc4ccccc4)C2[C@H](C)[C@@]2(C)O[C@H]2C3/C=C/C/C=C\CNC(=O)[C@@H]2CCCN2C1=O (some centres not stated) — what was its composite z-score?
Result string: -0.0544

Query string: Here is the next compound: CCCCN1CC=CC23O[C@@H]4/C=C\CCC(C)OC(=O)C4[C@H]2C(=O)N(C(C)CO)[C@@H]3C1=O (some centres not stated)
Result string: -0.331

Query string: Here is the next compound: CO[C@H]1O[C@H](CO)[C@@H](OC(=O)Nc2ccc(C(F)(F)F)cc2)[C@H](OC(=O)Nc2ccccc2-c2ccccc2)[C@@H]1OC(=O)Nc1ccccc1-c1ccccc1
Result string: 0.534

Query string: Then this compound: C=CCC(OC(C)=O)[C@@H]1[C@@H](N(Cc2cccc3ccccc23)C(=O)c2ccc(C)cc2)c2cc(OCCCO)ccc2N1C(=O)c1ccc2ccccc2n1 (some centres not stated)
Result string: 0.0009

Query string: Then this compound: Cc1ccc(S[C@]2(C(=O)NCC(F)(F)F)CC(=O)N(C3CCCCC3)[C@@H]2c2ccc(CO)cc2)cc1
Result string: 0.123

Further cases:
Query string: Can you share its composite z-score? I mean this compound: COCCCNC(=O)[C@@H]1c2ccccc2C(=O)N(Cc2cc(C(F)(F)F)cc(C(F)(F)F)c2)[C@H]1c1ccc(CO)cc1
Result string: 1.24

Query string: Entry to check: C=CC[C@@]1(C(=O)O)N=C(c2ccc(OCCCO)cc2)O[C@@H]1c1ccccc1CN=[N+]=[N-]
Result string: -0.335
